Let's look at some compounds and their measured phytotoxicity to the plant, ZEAMX.
system: Zea mays (ZEAMX); experiment: Herbicidal efficacy, application pre-emergence; type: in vivo; details: 250 g/ha, evaluated visually after 13 days, scale 0-5

A selection of reference data follows.
- Cc1cc(C2CN(C)C(=O)C2C(=O)Nc2ccc(F)cc2F)nn1C(F)F (centres unmarked): 2
- Cc1cc(C2CN(C)C(=S)C2C(=O)Nc2ccc(F)cc2F)nn1C(F)F (centres unmarked): 1
- CCc1cc(C2CN(C)C(=O)C2C(=O)Nc2ccc(F)cc2F)nn1C(F)F (centres unmarked): 3
- CCc1cc(C2CN(C)C(=S)C2C(=O)Nc2ccc(F)nc2F)nn1C(F)F (centres unmarked): 1
- Cc1cc(C2CN(C)C(=S)C2C(=O)Nc2ccc(F)nc2F)nn1C(F)F (centres unmarked): 1

*Q* Reported phytotoxicity to the plant, ZEAMX for Cc1cc(C2CN(C)C(=O)C2C(=O)Nc2cccc(F)c2F)nn1C(F)F (centres unmarked) : what is it?
*A* 4

*Q* Then what about the compound Cc1c(F)cccc1NC(=O)C1C(=O)N(C)CC1c1cc(C)n(C(F)F)n1 (centres unmarked) ?
*A* 3

*Q* Please do the same for CCc1cc(C2CN(C)C(=O)C2C(=O)Nc2ccc(F)nc2F)nn1C(F)F (centres unmarked) as well.
*A* 3

*Q* Another compound: Cc1c(Br)c(C2CN(C)C(=O)C2C(=O)Nc2ccc(F)nc2F)nn1C(F)F (centres unmarked)
*A* 1

*Q* Consider next the compound CCc1cc(C2CN(C)C(=S)C2C(=O)Nc2cccc(F)c2F)nn1C(F)F (centres unmarked) in the same way.
*A* 4

*Q* Entry Cc1c(Br)c(C2CN(C)C(=O)C2C(=O)Nc2ccc(F)cc2F)nn1C(F)F (centres unmarked) please
*A* 1

*Q* Again, but for Cc1cc(C2CN(C)C(=O)C2C(=O)Nc2ccc(F)nc2F)nn1C(F)F (centres unmarked)
*A* 2

*Q* Try this compound next: CCc1cc(C2CN(C)C(=S)C2C(=O)Nc2ccc(F)cc2F)nn1C(F)F (centres unmarked)
*A* 2

*Q* Field entry: CCc1cc(C2CN(C)C(=O)C2C(=O)Nc2cccc(F)c2C)nn1C(F)F (centres unmarked)
*A* 4

Where do these numbers come from? They come from patent US20230312478A1.
